Source of measurements: patent US7910622B2

molecular target: TraR (Agrobacterium tumefaciens); construct: These strains lack their AHL synthase (I) genes, but retain their native R genes; endogenous in cells; host or cells: A. tumefaciens WCF47 (Δ-traI) with PtraI-lacZ plasmid pCF372; experiment: cell-based; conditions: EC50 of autoinducer in A. tumefaciens WCF47 (pCF372), value in method text
Sequence (P33905 whole entry): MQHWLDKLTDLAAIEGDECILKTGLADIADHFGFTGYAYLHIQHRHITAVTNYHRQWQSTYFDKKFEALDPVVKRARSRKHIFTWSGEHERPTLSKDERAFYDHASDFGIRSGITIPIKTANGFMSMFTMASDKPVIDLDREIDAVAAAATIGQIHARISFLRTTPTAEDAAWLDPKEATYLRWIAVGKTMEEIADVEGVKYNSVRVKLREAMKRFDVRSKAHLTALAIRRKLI
MEASURED QUANTITY: pEC50
Note on pEC50: it is the negative log10 of concentration, concentration in mol/L.

For CCCCCC(=O)CC(=O)N[C@H]1CCOC1=O [compound 1, N-(3-oxo-octanoyl)-L-homoserine lactone, reference compound] the compound record lists pEC50 as 7.00

----------
target: LasR (Pseudomonas aeruginosa); construct: expressed in transfected cells; host or cells: E. coli DH5α (pJN105L pSC11), arabinose-induced; assay: cell-based; details: read-out: E. coli-LasR Activation [%], 5 μM ligand; E. coli DH5α (pJN105L pSC11); normalized to OdDHL
MEASURED QUANTITY: activation at 5 µM (%)
Respond with the bare value in %.

Below: 5 molecules and their reported activation at 5 µM.
INSERT INTO assay_data (molecule, result_number) VALUES
  ('O=C(Cc1ccc(Br)cc1)N[C@H]1CCOC1=O [A17, 4-bromo-phenylacetanoyl HL, reference compound]', 0),
  ('CCCCCCCC(=O)N[C@H]1CCOC1=O [A3, C8 AHL]', 1),
  ('CCCCCCC(=O)NC1CCOC1=O (stereo not shown) [compound 4]', 0),
  ('O=C(Cc1ccc(C(F)(F)F)cc1)N[C@H]1CCOC1=O [B23, 4-trifluoromethyl PHL]', 0),
  ('O=C(Cc1ccc(-c2ccccc2)cc1)N[C@H]1CCOC1=O [C18, 4-phenyl PHL]', 0);

Input CCCC(=O)CC(=O)N[C@H]1CCOC1=O [compound 3] . Output activation at 5 µM: 1

# molecule O=C(Cc1ccc([N+](=O)[O-])cc1)NC1CCOC1=O (stereo not shown) [B16, 4-nitro PHL] ; its activation at 5 µM = 0

Record O=C(Cc1ccc(-c2ccccc2)cc1)NC1CCOC1=O (stereo not shown) [B21, 4-phenyl PHL] , field activation at 5 µM: 0

----------
biological target: LasR (Pseudomonas aeruginosa); construct: expressed in transfected cells; host or cells: E. coli DH5α (pJN105L pSC11), arabinose-induced; experiment: cell-based; conditions: 5 μM ligand; E. coli DH5α (pJN105L pSC11); normalized to OdDHL
MEASURED QUANTITY: E. coli-LasR Activation [%]

Solved cases below.
INSERT INTO results (molecule, result) VALUES
  ('O=C(Cc1ccc(N=Nc2ccccc2)cc1)NC1CCOC1=O (stereo not shown)', '1%'),
  ('C=CCCC(=O)N[C@H]1CCOC1=O', '0%'),
  ('CCCCCCCCCCCCCCCC(=O)N[C@H]1CCOC1=O', '11%');

Okay, now this molecule:
Query CCOc1ccc(CC(=O)N[C@H]2CCOC2=O)cc1 yields E. coli-LasR Activation [%] of 0%

----------
target: LasR (Pseudomonas aeruginosa, UniProt P25084); construct: expressed in transfected cells; host or cells: E. coli DH5α (pJN105L pSC11), arabinose-induced; assay: cell-based; settings: 5 μM ligand; E. coli DH5α (pJN105L pSC11); normalized to OdDHL
Sequence (P25084 whole entry): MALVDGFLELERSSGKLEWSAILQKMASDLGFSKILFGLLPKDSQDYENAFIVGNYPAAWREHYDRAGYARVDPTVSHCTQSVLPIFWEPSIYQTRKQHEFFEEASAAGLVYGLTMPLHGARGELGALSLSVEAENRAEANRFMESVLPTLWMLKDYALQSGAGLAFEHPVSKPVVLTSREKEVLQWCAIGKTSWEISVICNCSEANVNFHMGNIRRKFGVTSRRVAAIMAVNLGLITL
Reported E. coli-LasR Activation [%] is given for each of the following compounds.
The response must be a number in % with no trailing unit.

Worked set:
INSERT INTO measurements (compound, result_number) VALUES
  ('O=C(/C=C/c1ccccc1)N[C@H]1CCOC1=O [A19]', 2),
  ('O=C(CC(=O)N[C@@H]1CCOC1=O)Cc1ccccc1 [A25]', 84);

Here COc1cc(C(C)=O)ccc1OCC(=O)N[C@H]1CCOC1=O [D16] was tested on LasR (Pseudomonas aeruginosa, UniProt P25084), and its E. coli-LasR Activation [%] came to 0

// compound COc1ccccc1C1CCN(c2ccc(C=CC(=O)NC3CCOC3=O)cc2[N+](=O)[O-])CC1 (centres unmarked) [D18] , assay LasR (Pseudomonas aeruginosa, UniProt P25084), E. coli-LasR Activation [%] value: 32

Reading of E. coli-LasR Activation [%] for O=C(CCCc1ccccc1)N[C@@H]1CCOC1=O [A26] with LasR (Pseudomonas aeruginosa, UniProt P25084): 0
